assay: Inhibition of p38 MAPK at 10 uM by ELISA
Use 30% as the dividing line for inhibition, with the line itself on the MET side and lower values as NOT MET.

Solved cases below.
{"compound": "CCc1ccc(OCC(=O)Nc2cccc3nc(C)ccc23)cc1", "class name": "NOT MET"}
{"compound": "Cn1nc(CC(=O)Nc2ccc(Br)cc2)c2ccccc2c1=O", "class name": "NOT MET"}
{"compound": "CC(C)Oc1ccc(OCCSc2nc(=O)c3ccccc3[nH]2)cc1", "class name": "NOT MET"}
{"compound": "CC(C)(C)c1nnc2sc(COc3ccccc3)nn12", "class name": "MET"}
{"compound": "Brc1ccccc1-c1nnc2sc(COc3ccccc3)nn12", "class name": "MET"}

Determine whether measured inhibition meets or exceeds 30% for COc1ccc(OCc2nn3c(-c4ccccc4Cl)nnc3s2)cc1
MET

Determine whether measured inhibition meets or exceeds 30% for Cc1cc(-c2nnc3sc(COc4ccc(F)cc4)nn23)n(C)n1
NOT MET

Determine whether measured inhibition meets or exceeds 30% for COc1ccccc1Cc1nnc2sc(COc3ccccc3)nn12
MET

Determine whether measured inhibition meets or exceeds 30% for Fc1ccccc1-c1nnc2sc(COc3ccccc3)nn12
MET

Determine whether measured inhibition meets or exceeds 30% for NC(=O)C(c1ccc(Cl)cc1)c1ccc(C(=O)c2ccccc2)cc1 (centres undefined)
NOT MET

Determine whether measured inhibition meets or exceeds 30% for Cc1sc(NC(=O)c2ccc(Cl)cc2)c(C(=O)c2ccccc2)c1C
MET

Determine whether measured inhibition meets or exceeds 30% for CCn1c(SCc2ccccc2Cl)nc2ccccc2c1=O
NOT MET

Determine whether measured inhibition meets or exceeds 30% for c1ccc(OCc2nn3c(-c4ccccc4)nnc3s2)cc1
MET

----------
assay: Inhibition of p38 MAPK at 10 uM by ELISA
observed property: inhibition (%)
The reply should be a number in %, with the unit left off.

{"compound": "CCSc1ccccc1C(=O)N1CCc2ccccc21", "unit text": "%", "quantitative result": 4}
{"compound": "Fc1ccc(OCc2nn3c(Cc4ccccc4)nnc3s2)cc1", "unit text": "%", "quantitative result": 32}
{"compound": "FC(F)(F)c1nnc2sc(COc3ccccc3)nn12", "unit text": "%", "quantitative result": 16}
{"compound": "CCOC(=O)C(C)Sc1nc2c(c(=O)n1-c1ccc(F)cc1)SCC2 (configuration not stated)", "unit text": "%", "quantitative result": 23}
{"compound": "c1ccc(CCc2nn3c(-c4ccncc4)nnc3s2)cc1", "unit text": "%", "quantitative result": 26}
{"compound": "CC(C)(Oc1ccccc1)c1nn2c(-c3ccoc3)nnc2s1", "unit text": "%", "quantitative result": 24}

Answer with reported inhibition of Clc1ccccc1-c1nnc2sc(COc3ccccc3)nn12
76

Answer with reported inhibition of Cc1cccc(OCc2nn3c(-c4ccccc4Cl)nnc3s2)c1
76

Answer with reported inhibition of CCc1cc2c(SCC(=O)Nc3ccc(Br)cc3)ncnc2s1
14

Answer with reported inhibition of Cc1ccc(CNC(=O)CN(c2cccc(Cl)c2)S(C)(=O)=O)cc1
1

Answer with reported inhibition of COc1ccc(Cc2nn3c(-c4ccccc4Cl)nnc3s2)cc1
83

Answer with reported inhibition of O=C(c1cn(Cc2ccccc2F)c2ccccc12)C1CC1
23

----------
test: Inhibition of p38 MAPK at 10 uM by ELISA
observed property: inhibition (%)
The reply should be a number in %, with the unit left off.

Solved entries:
{"compound": "Oc1ccc2ccccc2c1C1NN=C(c2ccccc2)S1 (stereo unspecified)", "unit text": "%", "quantitative result": 21}
{"compound": "Clc1cccc(-c2nnc3sc(COc4ccccc4)nn23)c1", "unit text": "%", "quantitative result": 3}
{"compound": "COc1ccc(-c2nnc3sc(COc4ccc(F)cc4)nn23)cc1", "unit text": "%", "quantitative result": 31}
{"compound": "CCC(Oc1ccccc1)c1nn2c(-c3ccoc3C)nnc2s1 (stereo unspecified)", "unit text": "%", "quantitative result": 31}

Answer with reported inhibition of Cc1ccccc1OCc1nn2c(-c3ccccc3Cl)nnc2s1
65

Answer with reported inhibition of Cc1nnc2sc(COc3ccccc3)nn12
18

Where do these numbers come from? They come from ChEMBL document CHEMBL1137773.
